targetDesc: Nuclear respiratory factor 1 (Homo sapiens) (UniProt Q16656)
Sequence (Q16656 whole entry, looked up): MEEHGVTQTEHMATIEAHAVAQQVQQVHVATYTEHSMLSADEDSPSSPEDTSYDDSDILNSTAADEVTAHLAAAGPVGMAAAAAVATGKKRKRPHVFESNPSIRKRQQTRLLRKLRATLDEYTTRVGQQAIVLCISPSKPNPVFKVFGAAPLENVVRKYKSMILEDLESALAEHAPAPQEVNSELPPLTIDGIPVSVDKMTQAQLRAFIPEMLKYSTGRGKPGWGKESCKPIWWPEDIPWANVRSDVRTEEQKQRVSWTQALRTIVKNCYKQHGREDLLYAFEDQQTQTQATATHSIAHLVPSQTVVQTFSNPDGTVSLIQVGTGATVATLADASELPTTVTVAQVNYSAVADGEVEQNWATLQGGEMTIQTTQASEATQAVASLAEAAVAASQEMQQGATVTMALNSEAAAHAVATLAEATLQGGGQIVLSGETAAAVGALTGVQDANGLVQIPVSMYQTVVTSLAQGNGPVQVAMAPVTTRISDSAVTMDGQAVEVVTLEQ
protocol: ATG_NRF1_CIS: Attagene CIS-FACTORIAL HepG2 Assay for human Nuclear Respiratory Factor 1 (NRF1) Orphan Gene (AID 2282987)
measurementParameters: HepG2 NRF1 cis-element reporter, Attagene multiplex; actives raise or lower the signal
Activity calls are given as the source filed them. How the source made its calls: active means hit-call score of the fitted dose curve at least 0.9, where 1 is the maximum; inactive means score below 0.9.
resultType: outcome

Reference set (6 entries):
Consider the compound O=C(CC(C(=O)OC1CCCCC1)S(=O)(=O)O)OC1CCCCC1 (configuration not stated) . State its measured outcome.
inactive

Check the records and state outcome for CCO[Si](CCCN)(OCC)OCC
inactive

Tell me outcome reported for Nc1nnc(-c2ccc([N+](=O)[O-])o2)o1
inactive

Write down outcome measured for item COC(=O)CCSCCC(=O)OC
inactive

Find the measured outcome of CCOC(=O)c1ccccc1 and report it.
inactive

Provide measured outcome value, entry: c1cc[c]([Bi]([c]2ccccc2)[c]2ccccc2)cc1
inactive

Then this compound:
# return recorded outcome for input CCO[Si](OCC)(OCC)c1ccccc1
inactive

Hello, the source for this data is PubChem BioAssay (EPA / NIEHS), in case you need it.
